Tested on: 922993-354-T-J3-PDC complex spheroids, viability, % test/control
Assay: Anticancer human tumor 922993-354-T-J3-PDC patient-derived endometrial carcinoma cell line growth inhibition [CLK]
Details: curve of first compound; second compound 0.316 µM
Description: A high-throughput screen of multi-cell type tumor spheroids was designed to identify active combinations of […] and targeted small molecules. Complex spheroids include a stromal component modeled by human endothelial cells (HUVEC) and fibroblasts modeled by human mesenchymal stem cells (MSCs). […] Compounds. […] If the clinical Cmax for an agent had not been determined, the highest concentration tested was 10 microM. […]
Recorded metric: IC50

{"Molecule": "O=c1[nH]cc(F)c(=O)[nH]1 + CN1CCN(c2cc(C(=O)Nc3cc4cc(-c5cnn(C)c5)ccc4cn3)ccn2)CC1", "Result": "< 31.6 nM"}
{"Molecule": "Nc1ccccc1NC(=O)c1ccc(CNC(=O)OCc2cccnc2)cc1 + CN1CCN(c2cc(C(=O)Nc3cc4cc(-c5cnn(C)c5)ccc4cn3)ccn2)CC1", "Result": "< 31.6 nM"}
{"Molecule": "Nc1ccn(C2OC(CO)C(O)C2(F)F)c(=O)n1 (stereo not drawn) + CN1CCN(c2cc(C(=O)Nc3cc4cc(-c5cnn(C)c5)ccc4cn3)ccn2)CC1", "Result": "< 31.6 nM"}

###

System: 922993-354-T-J3-PDC complex spheroids, viability, % test/control
Experiment: Anticancer human tumor 922993-354-T-J3-PDC cell line growth inhibition [CLK];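 note: spheroids exposed to the agents for 7 days before readout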
Conditions: second compound 1 µM; first compound 1 µM; stronger effect = lower value
Reported viability, T/C by item:

{"Compound": "CC(CO)NC(=O)c1cc(-c2ccc(Cl)cc2)nn(-c2cnn(C)c2)c1=O (stereo not drawn) + CNC(=O)c1ccc(Nc2nc(OC3CCCC3)c3c(-c4ccc5nc(C)oc5c4)c[nH]c3n2)c(OC)c1", "viability, T/C, %": 39.9}
{"Compound": "Nc1ccn(C2OC(CO)C(O)C2(F)F)c(=O)n1 (stereo not drawn) + CNC(=O)c1ccc(Nc2nc(OC3CCCC3)c3c(-c4ccc5nc(C)oc5c4)c[nH]c3n2)c(OC)c1", "viability, T/C, %": 13.3}
{"Compound": "CC1COCCN1c1cc(C2(S(C)(=N)=O)CC2)nc(-c2ccnc3[nH]ccc23)n1 (stereo not drawn) + CN1CCN(c2cc(C(=O)Nc3cc4cc(-c5cnn(C)c5)ccc4cn3)ccn2)CC1", "viability, T/C, %": 0.14}

###

System: 922993-354-T-J3-PDC complex spheroids, viability, % test/control
Assay: Anticancer human tumor 922993-354-T-J3-PDC cell line growth inhibition [CLK];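 note: spheroids exposed to the agents for 7 days before readout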
Conditions: curve of first compound; second compound 0.0316 µM
pIC50: −log10 of the molar value.

{"Compound": "CC1COCCN1c1cc(C2(S(C)(=N)=O)CC2)nc(-c2ccnc3[nH]ccc23)n1 (configuration not stated) + CNC(=O)c1ccc(Nc2nc(OC3CCCC3)c3c(-c4ccc5nc(C)oc5c4)c[nH]c3n2)c(OC)c1", "pIC50": "< 5.00"}
{"Compound": "COc1ccc([C@@H](O)c2cc(-c3ncnc4cc(N5CCOCC5)ccc34)c(F)cc2Cl)nn1 + CN1CCN(c2cc(C(=O)Nc3cc4cc(-c5cnn(C)c5)ccc4cn3)ccn2)CC1", "pIC50": "< 5.00"}
{"Compound": "CCN1CCN(Cc2ccc(Nc3ncc(F)c(-c4cc(F)c5nc(C)n(C(C)C)c5c4)n3)nc2)CC1 + CNC(=O)c1ccc(Nc2nc(OC3CCCC3)c3c(-c4ccc5nc(C)oc5c4)c[nH]c3n2)c(OC)c1", "pIC50": "< 6.00"}
{"Compound": "C=CC(=O)Nc1cc(Nc2nccc(-c3cn(C)c4ccccc34)n2)c(OC)cc1N(C)CCN(C)C + CN1CCN(c2cc(C(=O)Nc3cc4cc(-c5cnn(C)c5)ccc4cn3)ccn2)CC1", "pIC50": "< 6.52"}
{"Compound": "Cn1ncnc1[C@H]1c2n[nH]c(=O)c3cc(F)cc(c23)N[C@@H]1c1ccc(F)cc1 + CN1CCN(c2cc(C(=O)Nc3cc4cc(-c5cnn(C)c5)ccc4cn3)ccn2)CC1", "pIC50": "< 7.00"}
{"Compound": "Nc1ccn(C2OC(CO)C(O)C2(F)F)c(=O)n1 (configuration not stated) + CN1CCN(c2cc(C(=O)Nc3cc4cc(-c5cnn(C)c5)ccc4cn3)ccn2)CC1", "pIC50": "> 7.50"}
{"Compound": "O=C(c1cc(Cc2n[nH]c(=O)c3ccccc23)ccc1F)N1CCN(C(=O)C2CC2)CC1 + CN1CCN(c2cc(C(=O)Nc3cc4cc(-c5cnn(C)c5)ccc4cn3)ccn2)CC1", "pIC50": "< 5.00"}
{"Compound": "Cn1ncnc1[C@H]1c2n[nH]c(=O)c3cc(F)cc(c23)N[C@@H]1c1ccc(F)cc1 + CNC(=O)c1ccc(Nc2nc(OC3CCCC3)c3c(-c4ccc5nc(C)oc5c4)c[nH]c3n2)c(OC)c1", "pIC50": "< 7.00"}
{"Compound": "O=C(c1cc(Cc2n[nH]c(=O)c3ccccc23)ccc1F)N1CCN(C(=O)C2CC2)CC1 + CNC(=O)c1ccc(Nc2nc(OC3CCCC3)c3c(-c4ccc5nc(C)oc5c4)c[nH]c3n2)c(OC)c1", "pIC50": "< 5.00"}
{"Compound": "CC1(C)CCC(CN2CCN(c3ccc(C(=O)NS(=O)(=O)c4ccc(NCC5CCOCC5)c([N+](=O)[O-])c4)c(Oc4cnc5[nH]ccc5c4)c3)CC2)=C(c2ccc(Cl)cc2)C1 + CNC(=O)c1ccc(Nc2nc(OC3CCCC3)c3c(-c4ccc5nc(C)oc5c4)c[nH]c3n2)c(OC)c1", "pIC50": "< 5.00"}
{"Compound": "CCCS(=O)(=O)Nc1ccc(F)c(C(=O)c2c[nH]c3ncc(-c4ccc(Cl)cc4)cc23)c1F + CN1CCN(c2cc(C(=O)Nc3cc4cc(-c5cnn(C)c5)ccc4cn3)ccn2)CC1", "pIC50": "< 5.00"}
{"Compound": "CCN1CCN(Cc2ccc(Nc3ncc(F)c(-c4cc(F)c5nc(C)n(C(C)C)c5c4)n3)nc2)CC1 + CN1CCN(c2cc(C(=O)Nc3cc4cc(-c5cnn(C)c5)ccc4cn3)ccn2)CC1", "pIC50": "< 6.00"}

###

System: 922993-354-T-J3-PDC complex spheroids, viability, % test/control
Assay: Anticancer human tumor 922993-354-T-J3-PDC cell line growth inhibition [CLK];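 note: spheroids exposed to the agents for 7 days before readout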
Details: curve of first compound; second compound 0.1 µM
From the text: A high-throughput screen of multi-cell type tumor spheroids was designed to identify active combinations of […] and targeted small molecules. Complex spheroids include a stromal component modeled by human endothelial cells (HUVEC) and fibroblasts modeled by human mesenchymal stem cells (MSCs). […] Compounds. […] If the clinical Cmax for an agent had not been determined, the highest concentration tested was 10 microM. […]
pIC50: −log10 of the molar value.
Recorded metric: pIC50

{"Molecule": "Nc1ccn(C2OC(CO)C(O)C2(F)F)c(=O)n1 (centres undefined) + CNC(=O)c1ccc(Nc2nc(OC3CCCC3)c3c(-c4ccc5nc(C)oc5c4)c[nH]c3n2)c(OC)c1", "Result": "> 7.50"}
{"Molecule": "O=C(c1cc(Cc2n[nH]c(=O)c3ccccc23)ccc1F)N1CCN(C(=O)C2CC2)CC1 + CN1CCN(c2cc(C(=O)Nc3cc4cc(-c5cnn(C)c5)ccc4cn3)ccn2)CC1", "Result": "< 5.00"}
{"Molecule": "COc1ccc([C@@H](O)c2cc(-c3ncnc4cc(N5CCOCC5)ccc34)c(F)cc2Cl)nn1 + CNC(=O)c1ccc(Nc2nc(OC3CCCC3)c3c(-c4ccc5nc(C)oc5c4)c[nH]c3n2)c(OC)c1", "Result": "< 5.00"}
{"Molecule": "C=CC(=O)N1CCN(c2nc(=O)n(-c3c(C)ccnc3C(C)C)c3nc(-c4c(O)cccc4F)c(F)cc23)C(C)C1 (centres undefined) + CN1CCN(c2cc(C(=O)Nc3cc4cc(-c5cnn(C)c5)ccc4cn3)ccn2)CC1", "Result": "< 5.00"}
{"Molecule": "C#Cc1c(F)ccc2cc(O)cc(-c3ncc4c(N5CC6CCC(C5)N6)nc(OCC56CCCN5CC(F)C6)nc4c3F)c12 (centres undefined) + CN1CCN(c2cc(C(=O)Nc3cc4cc(-c5cnn(C)c5)ccc4cn3)ccn2)CC1", "Result": "< 5.00"}
{"Molecule": "C#Cc1c(F)ccc2cc(O)cc(-c3ncc4c(N5CC6CCC(C5)N6)nc(OCC56CCCN5CC(F)C6)nc4c3F)c12 (centres undefined) + CNC(=O)c1ccc(Nc2nc(OC3CCCC3)c3c(-c4ccc5nc(C)oc5c4)c[nH]c3n2)c(OC)c1", "Result": "< 5.00"}
{"Molecule": "O=C(c1cc(Cc2n[nH]c(=O)c3ccccc23)ccc1F)N1CCN(C(=O)C2CC2)CC1 + CNC(=O)c1ccc(Nc2nc(OC3CCCC3)c3c(-c4ccc5nc(C)oc5c4)c[nH]c3n2)c(OC)c1", "Result": "< 5.00"}
{"Molecule": "C=CC(=O)Nc1cc(Nc2nccc(-c3cn(C)c4ccccc34)n2)c(OC)cc1N(C)CCN(C)C + CN1CCN(c2cc(C(=O)Nc3cc4cc(-c5cnn(C)c5)ccc4cn3)ccn2)CC1", "Result": "< 6.52"}
{"Molecule": "CC1COCCN1c1cc(C2(S(C)(=N)=O)CC2)nc(-c2ccnc3[nH]ccc23)n1 (centres undefined) + CN1CCN(c2cc(C(=O)Nc3cc4cc(-c5cnn(C)c5)ccc4cn3)ccn2)CC1", "Result": "< 5.00"}
